molecular target: skeletal myofibrils (myosin ATPase); test: Skeletal Myofibril ATPase Assay; assay type: biochemical; conditions: Table 4C
pIC50: −log10 of the molar value.
MEASUREMENT NAME: pIC50

Look over these answered cases.
Query: What value of pIC50 has been reported for the following compound? `COc1ccc(-c2ccc(=O)n(CC(=O)NCc3cccc(F)c3)n2)c(F)c1`
Reply: < 4.00

Query: Another compound to look at: `COc1ccc(-c2ccc(=O)n(CC(=O)NCc3ccccc3)n2)cc1`
Reply: 4.00 to 5.00

Query: Another compound to look at: `Cc1ccc(-c2ccc(=O)n(CC(=O)NC3CCCC3)n2)cc1`
Reply: 4.00 to 5.00

Query: Another compound to look at: COc1ccc(-c2ccc(=O)n(CC(=O)NC[C@@H]3CC4C=CC3C4)n2)cc1 (stereo partly drawn)
Reply: < 4.00

I'm hoping you can list pIC50 for every compound here, please.
1. COc1ccc(-c2ccc(=O)n(CC(=O)NCc3cnn(C)c3)n2)cc1
2. COc1ccc(-c2ccc(=O)n(CC(=O)NCc3cccc(F)c3)n2)cc1

Reply:
1: < 4.00; 2: 4.00 to 5.00

I'm hoping you can list pIC50 for every compound here, please.
1. O=C(Cn1nc(-c2ccccc2)ccc1=O)NCCC1=CCCCC1
2. CC[C@H](C)NC(=O)Cn1nc(-c2ccc(Cl)cc2)ccc1=O
3. CC(C)NC(=O)Cn1nc(-c2ccc(Br)cc2)ccc1=O

Reply:
1: > 5.00; 2: 4.00 to 5.00; 3: 4.00 to 5.00

----------
molecular target: skeletal myofibrils (myosin ATPase); assay: Skeletal Myofibril ATPase Assay; assay type: biochemical; conditions: Table 4C
pIC50: −log10 of the molar value.
MEASUREMENT NAME: pIC50

Look over these answered cases.
Query: Under skeletal myofibrils (myosin ATPase): pIC50 value of `COc1ccc(-c2ccc(=O)n(CC(=O)NCCc3ccccc3)n2)cc1` ?
Reply: > 5.00

Query: Another molecule to look at: `CC(C)OCCCNC(=O)Cn1nc(-c2ccc(Cl)cc2)ccc1=O`
Reply: 4.00 to 5.00

Query: Another molecule to look at: `CCc1ccc(-c2ccc(=O)n(CC(=O)NCc3ccccc3Cl)n2)cc1`
Reply: > 5.00

I'm hoping you can list pIC50 for every molecule here, please.
1. O=C(Cn1nc(-c2ccc(Cl)cc2)ccc1=O)Nc1ccc2[nH]ccc2c1
2. COc1ccc(-c2ccc(=O)n(CC(=O)Nc3ccc4c(c3)OCCO4)n2)cc1
3. COc1ccc(Cl)cc1NC(=O)Cn1nc(-c2ccccc2)ccc1=O
4. C[C@@H](NC(=O)Cn1nc(-c2ccc3c(c2)OCCCO3)ccc1=O)c1ccc(F)cc1
5. COc1ccc(-c2ccc(=O)n(CC(=O)NC(C)c3ccccc3Cl)n2)cc1 (stereo not drawn)
6. COc1ccc(-c2ccc(=O)n(CC(=O)NCc3ccccc3C(F)(F)F)n2)cc1

Reply:
> 5.00
> 5.00
< 4.00
4.00 to 5.00
4.00 to 5.00
> 5.00

----------
target: skeletal myofibrils (myosin ATPase); experiment: Skeletal Myofibril ATPase Assay; type: biochemical; settings: Table 4C
pIC50: −log10 of the molar value.
Please provide measured pIC50 for the entries that follow.

Look over these answered cases.
Query: What value of pIC50 has been reported for the following molecule? COc1ccc(-c2ccc(=O)n(CC(=O)NCCC(C)C)n2)cc1 [IIIb-48]
Reply: < 4.00

Query: Another molecule to look at: O=C(Cn1nc(-c2ccc3c(c2)OCCO3)ccc1=O)Nc1ccccc1F [IIIb-17]
Reply: > 5.00

Query: Another molecule to look at: COc1ccc(-c2ccc(=O)n(CC(=O)NC(C)(C)c3ccccc3)n2)cc1 [IIIa-9]
Reply: > 5.00

Query: Another molecule to look at: COc1ccc(-c2ccc(=O)n(CC(=O)NCCc3ccc(OC)c(OC)c3)n2)cc1 [IIIb-51]
Reply: < 4.00

Query: Another molecule to look at: COc1ccc(-c2ccc(=O)n(CC(=O)NCCC3=CCCCC3)n2)cc1 [IIIb-14]
Reply: > 5.00

I'm hoping you can list pIC50 for every molecule here, please.
1. CCNC(=O)Cn1nc(-c2ccc(C3CC3)cc2)ccc1=O [IIIa-19]
2. COc1ccc(-c2ccc(=O)n(CC(=O)Nc3cccc4[nH]ccc34)n2)c(F)c1 [IIIb-2]
3. O=C(Cn1nc(-c2ccc3c(c2)OCCCO3)ccc1=O)NC1CCCCCC1 [IIIb-24]
4. Cc1ccc(-c2ccc(=O)n(CC(=O)NCCc3ccccc3)n2)cc1 [IIIc-3]

Reply:
1. > 5.00
2. > 5.00
3. 4.00 to 5.00
4. > 5.00

----------
Please provide measured IC50 for the entries that follow.
target: skeletal myofibrils (myosin ATPase); experiment: Skeletal Myofibril ATPase Assay; format: biochemical; conditions: Table 4C

Look over these answered cases.
Query: What value of IC50 has been reported for the following compound? `O=C(Cn1nc(-c2ccccc2)ccc1=O)Nc1ccccc1Cl`
Reply: 10 to 100 µM

Query: Another compound to look at: `O=C(Cn1nc(-c2ccccc2)ccc1=O)Nc1cccc2[nH]ccc12`
Reply: 10 to 100 µM

Query: Another compound to look at: `CNC(=O)Cn1nc(-c2ccc(OC)cc2)ccc1=O`
Reply: 10 to 100 µM

Query: Another compound to look at: `CC[C@H](C)NC(=O)Cn1nc(-c2ccc(C)cc2)ccc1=O`
Reply: < 10 µM

Query: Another compound to look at: `CCOc1ccc(-c2ccc(=O)n(CCNC(=O)CC3CCCC3)n2)cc1`
Reply: > 100 µM

Query: Another compound to look at: `COc1ccc(-c2ccc(=O)n(CC(=O)NC(C)C)n2)c(F)c1`
Reply: 10 to 100 µM

Query: Another compound to look at: `COc1ccc(-c2ccc(=O)n(CC(=O)NCc3ccccc3Cl)n2)cc1OC`
Reply: > 100 µM

Query: Another compound to look at: `Cc1ccc(-c2ccc(=O)n(CC(=O)NC3CCCCC3)n2)cc1`
Reply: 10 to 100 µM

Query: Another compound to look at: `COc1ccc(-c2ccc(=O)n(CC(=O)Nc3cc(OC)ccc3OC)n2)cc1`
Reply: 10 to 100 µM

Query: Another compound to look at: `COc1ccc(-c2ccc(=O)n(CC(=O)NCc3cc(Cl)ccc3Cl)n2)cc1`
Reply: < 10 µM

I'm hoping you can list IC50 for every compound here, please.
1. CC(C)Oc1ccc(-c2ccc(=O)n(CC(=O)NCc3ccccc3Cl)n2)cc1
2. COc1ccc(-c2ccc(=O)n(CC(=O)NCc3ccno3)n2)cc1
3. COc1ccc(-c2ccc(=O)n(CC(=O)NCc3ccccc3C)n2)cc1
4. COc1ccc(-c2ccc(=O)n(CC(=O)NCc3ccccc3OC)n2)cc1
5. Cn1ccc2c(NC(=O)Cn3nc(-c4ccc(F)cc4)ccc3=O)cccc21

Reply:
1: < 10 µM; 2: > 100 µM; 3: < 10 µM; 4: 10 to 100 µM; 5: < 10 µM

I'm hoping you can list IC50 for every compound here, please.
1. O=C(Cn1nc(-c2ccc(Cl)cc2)ccc1=O)Nc1ccccc1Cl [IIIc-38]
2. O=C(Cn1nc(-c2ccc(Cl)cc2)ccc1=O)Nc1cccc2[nH]ccc12
3. COc1ccc(-c2ccc(=O)n(CC(=O)NCc3ccco3)n2)cc1 [IIIb-37]
4. COc1ccc(-c2ccc(=O)n(CC(=O)NCc3cccc(Cl)c3)n2)cc1
5. COc1ccc(-c2ccc(=O)n(CC(=O)NCc3ccon3)n2)cc1
6. COc1ccc(-c2ccc(=O)n(CC(=O)NCCC3=CCCCC3)n2)c(F)c1

Reply:
["< 10 µM", "< 10 µM", "10 to 100 µM", "< 10 µM", "10 to 100 µM", "< 10 µM"]

I'm hoping you can list IC50 for every compound here, please.
1. CC(C)c1cccc(NC(=O)Cn2nc(-c3ccc4c(c3)OCCCO4)ccc2=O)c1
2. O=C(Cn1nc(-c2ccccc2)ccc1=O)Nc1ccccc1C(F)(F)F
3. COc1ccc(-c2ccc(=O)n(CC(=O)Nc3ccc4c(c3)OCCO4)n2)c(F)c1
4. COCCNC(=O)Cn1nc(-c2ccc(OC)cc2)ccc1=O
5. COc1ccc(-c2ccc(=O)n(CC(=O)NCc3ccc(F)cc3)n2)cc1
6. COc1ccc(-c2ccc(=O)n(CC(=O)Nc3ccc(C(C)C)cc3)n2)cc1
7. COc1ccc(-c2ccc(=O)n(CC(=O)NCc3ccccc3)n2)c(F)c1
8. COc1ccc(-c2ccc(=O)n(CC(=O)Nc3ccc(Cl)cc3Cl)n2)c(F)c1

Reply:
["< 10 µM", "10 to 100 µM", "< 10 µM", "> 100 µM", "> 100 µM", "> 100 µM", "> 100 µM", "10 to 100 µM"]

I'm hoping you can list IC50 for every compound here, please.
1. COc1ccc(-c2ccc(=O)n(CC(=O)NCc3ccco3)n2)cc1 [IIIb-53]
2. COc1ccc(-c2ccc(=O)n(CC(=O)Nc3cccc(Cl)c3)n2)cc1
3. CC[C@H](C)NC(=O)Cn1nc(-c2ccccc2)ccc1=O
4. COc1ccc(-c2ccc(=O)n(CC(=O)NCc3cccc(C)c3)n2)cc1
5. CCc1cccc(NC(=O)Cn2nc(-c3ccc(C)cc3)ccc2=O)c1
6. COc1ccc(-c2ccc(=O)n(CC(=O)NC(C)CCc3ccccc3)n2)cc1 (centres unmarked)
7. CCC1CCC(CNC(=O)Cn2nc(-c3ccccc3)ccc2=O)CC1 (centres unmarked)

Reply:
1. > 100 µM
2. > 100 µM
3. 10 to 100 µM
4. < 10 µM
5. < 10 µM
6. 10 to 100 µM
7. 10 to 100 µM

I'm hoping you can list IC50 for every compound here, please.
1. O=C(Cn1nc(-c2ccccc2)ccc1=O)NCc1ccccc1Cl
2. COc1ccc(-c2ccc(=O)n(CC(=O)NCc3ccc(Cl)cc3Cl)n2)cc1

Reply:
10 to 100 µM
< 10 µM
